# test_summary: chemical genetic growth profiling, strain panel (AID 1159580);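 also: tested at 20 µM; growth read once vehicle control cultures reached saturation at 30 °C; 1 = growth at the plate median or of vehicle wells; lower values mean less growth of the strain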
# experimental_context: S. cerevisiae deletion strains, growth OD, locus YMR263W, strain SAP30, active compounds read low
The campaign covered roughly 5,500 compounds. About 2,000 (36%) were called active. Roughly 18% stayed inconclusive and do not appear here. The list shows a part of the results. Where a SMILES comes first, the peptide text is derived from it. Bridges are numbered along the chain shown (N, C = ends). [ ]: non-standard residue; d: D form. The star is where a group is joined. ξ: configuration not given here. ξDab(CH2SO3H) = NC(CCNCS(=O)(=O)O)C(=O)O; Heptanoyl(6-Me) = CC(C)CCCCC(=O)*; Dab = NCC[CH](N)C(=O)O
measurement_name: normalized growth
Number only, no unit.

compound	normalized growth
N#C/C(NCc1cccs1)=C(\C#N)NCc1c(F)cccc1Cl	0.947
C[C@@H]1CC[C@H]2[C@@H](C)C(=O)O[C@@H]3O[C@@]4(C)CC[C@@H]1[C@]32OO4	0.81
O=C(NC1Cc2ccccc2C1)c1cncc(Br)c1	0.984
O=C1ON=C(CSc2ccccc2)/C1=C/c1ccc(Cl)cc1	0.0516
Cn1c(CSCC(=O)Nc2ccccc2)n[nH]c1=S	1.02

## Input // normalized growth lookup, key: C/C=C1\[C@H]2C=C(C)C[C@]1(N)c1ccc(=O)[nH]c1C2
## Output 1

## Input // normalized growth lookup, key: O=C(CSCc1c(F)cccc1Cl)NC1Cc2ccccc2C1
## Output 0.991

## Input // normalized growth lookup, key: CN1C2CCC1CC(NC(=O)c1nn(C)c3ccccc13)C2 (configuration not stated)
## Output 0.999

## Input // normalized growth lookup, key: CCC(C)C1NC(=O)C(CCNCS(=O)(=O)O)NC(=O)C(NC(=O)C(CCNCS(=O)(=O)O)NC(=O)C(NC(=O)C(CCNCS(=O)(=O)O)NC(=O)CCCCC(C)C)C(C)O)CCNC(=O)C(C(C)O)NC(=O)C(CCNCS(=O)(=O)O)NC(=O)C(CCNCS(=O)(=O)O)NC(=O)C(C(C)CC)NC1=O (configuration not stated) ({Heptanoyl(6-Me)}-[ξDab(CH2SO3H)]T[ξDab(CH2SO3H)][Dab][ξDab(CH2SO3H)]II[ξDab(CH2SO3H)][ξDab(CH2SO3H)]T; lactam 4-C; configuration not given here)
## Output 0.985

Attribution: PubChem BioAssay AID1159580
